Test protocol: qHTS RealTime-Glo MT Cell Viability Assay in HepG2 cells - 16 hour (AID 1224885); note: nearly all actives have a fitted effect of over 50% in size
Conditions used: RealTime-Glo luminescence; series mostly up to 76.8 µM
Inconclusive results are not listed. Calls of active or inactive are those of the source. Calls come from the whole dose curve; as a rule, active = well fitted cell-killing curve with a large enough effect in the repeat runs; inconclusive = weak or mixed curves; inactive = flat fitted curve, though single readings scatter.
Result category, one only: True = active, False = inactive

>>> df
                                   compound  class_assignment
0  C[C@]12CCC(=O)C=C1CC[C@@H]1[C@@H]2[C@@H](O)C[C@@]2(C)[C@H]1CC[C@]2(O)C(=O)COC(=O)CCC(=O)O             False
1  CCN(C(=O)c1cc(C)cc(OC[C@H](C)Nc2ccncc2)c1)C(C)C             False
2  Cc1nc(-c2ccc3c(c2)CCN(CCC2CCC(NC(=O)/C=C/c4ccc(F)cc4)CC2)CC3)no1 (configuration not stated)             False
3             O=[N+]([O-])c1ccccc1Nc1ccccc1             False

Please examine the following record next.
Query string: Can you look up the reported call for CCCCCCCCCCCC(=O)NCCCN(C)C for me?
Result string: True

* * *

Test protocol: qHTS assay to identify small molecule antagonists of the peroxisome proliferator-activated receptor gamma (PPARg) signaling pathway - cell viability counter screen (AID 743194); note: nearly all actives have a fitted effect of over 55% in size
Conditions used: PPARg-bla HEK293H viability, CellTiter-Glo luminescence, 17 h, co-treated with 50 nM rosiglitazone; series mostly up to 62.6 µM
Inconclusive results are not listed. Calls of active or inactive are those of the source. Calls follow the shape of the dose curve; as a rule, active = well fitted cell-killing curve with a large enough effect in the repeat runs; inconclusive = weak or mixed curves, or effect the other way; inactive = no such curve, though single readings can be large or run the other way.
Classes to choose from: yes (1) (active), no (0) (inactive)

In [3]: df
Out[3]:
                                   compound  class_assignment
0  Cc1oc(-c2ccccc2)nc1CCC(=O)c1ccc(CC2SC(=O)NC2=O)cc1 (stereo unspecified)            no (0)
1  Cc1cc(CCN2CCN(c3nsc4ccccc34)CC2)cc2c1NC(=O)CC2(C)C           yes (1)

Proceed to the following item.
Query string: Hi team, can someone confirm the assay call for NNC(=O)c1cccc(C(=O)NN)c1 ?
Result string: no (0)

* * *

Measurement target: Estrogen receptor (Homo sapiens)
Test protocol: qHTS assay to identify small molecule antagonists of the estrogen receptor alpha (ER-alpha) signaling pathway using the BG1 cell line in the presence of 0.1 nM 17-beta-estradiol (AID 1259244); note: nearly all actives have a fitted effect of over 50% in size
Conditions used: VM7Luc4E2 (BG1) ERE-luciferase, antagonist mode, 0.1 nM E2, 22 h; series mostly up to 92.4 µM
Records with an inconclusive call do not appear. The source made the active and inactive calls. Calls follow the shape of the dose curve; as a rule, active = well fitted inhibition curve with a large enough effect in the repeat runs; inconclusive = weak or mixed curves; inactive = no such curve, though single readings can be large or run the other way.
Parameter call: string, one of class 1 = active, class 0 = inactive

Use these answered entries as a reference point.
>>> print(df.to_string())
                           smiles_structure                measurement_target  class_assignment
0     CCc1cc(Cc2cc(CC)c(N)c(CC)c2)cc(CC)c1N  Estrogen receptor (Homo sapiens)           class 1
1  Fc1ccc(C(c2ccc(F)cc2)N2CCN(C/C=C/c3ccccc3)CC2)cc1  Estrogen receptor (Homo sapiens)           class 0
2  CSc1ccc(/C=C2/C(C)=C(CC(=O)O)c3cc(F)ccc32)cc1  Estrogen receptor (Homo sapiens)           class 0
3             CCCCCCCCCCCCCCCCCC[N+](C)(C)C  Estrogen receptor (Homo sapiens)           class 1
4  N=C1C=CC(=C(c2ccc(N)cc2)c2ccc(N)cc2)C=C1  Estrogen receptor (Homo sapiens)           class 1

Query string: Which result was noted for this compound in the test: CN1CCN(CCC(=O)N2c3ccccc3Sc3ccc(C(F)(F)F)cc32)CC1
Result string: class 0

Query string: Entry CCOC(=O)O[C@H](C)OC(=O)c1ccc2c(c1)cc(C(=O)NC1CCN(C(C)C)CC1)n2Cc1cc(-c2ccc(Cl)s2)on1 : call = ?
Result string: class 1

Query string: Write down the call the test reported for this compound. Item: COc1c(C)c2c(c(O)c1C/C=C(\C)CCC(=O)O)C(=O)OC2
Result string: class 0

Query string: Outcome? Cc1cc(O)c(C(C)(C)C)cc1C(C)(C)C
Result string: class 1

Query string: Please share the test call associated with CC[C@@]1(O)C(=O)OCc2c1cc1n(c2=O)Cc2cc3c(CN(C)C)c(O)ccc3nc2-1 .
Result string: class 1

Query string: // outcome(item) with item = O=C1CCCc2c1cc1ccc3cccc4ccc2c1c34
Result string: class 0

Query string: # outcome recorded in this test, key = CCCCCCCC[N+](CCCCCCCC)(CCCCCCCC)CCCCCCCC
Result string: class 1
